Attribution: patent US6630501B1

Target or system: MMP-2 (Gel-A) (Homo sapiens)
Sequence (P08253 110-660): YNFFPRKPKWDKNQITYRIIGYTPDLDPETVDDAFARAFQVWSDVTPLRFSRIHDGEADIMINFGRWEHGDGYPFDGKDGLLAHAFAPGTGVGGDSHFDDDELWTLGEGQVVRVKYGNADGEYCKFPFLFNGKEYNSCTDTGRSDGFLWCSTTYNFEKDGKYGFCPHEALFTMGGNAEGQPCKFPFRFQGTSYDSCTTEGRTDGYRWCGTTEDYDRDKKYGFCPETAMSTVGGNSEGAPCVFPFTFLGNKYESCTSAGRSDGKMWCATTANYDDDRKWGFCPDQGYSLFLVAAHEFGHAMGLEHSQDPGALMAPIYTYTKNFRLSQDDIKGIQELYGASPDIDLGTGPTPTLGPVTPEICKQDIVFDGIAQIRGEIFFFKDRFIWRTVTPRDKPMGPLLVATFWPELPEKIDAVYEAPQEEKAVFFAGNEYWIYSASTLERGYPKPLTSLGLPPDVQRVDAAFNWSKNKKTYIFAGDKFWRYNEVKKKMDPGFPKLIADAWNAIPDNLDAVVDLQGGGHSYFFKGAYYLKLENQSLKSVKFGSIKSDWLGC
Assay notes: Ki determination with fluorogenic synthetic substrates, recombinant MMP-2
Measurement conditions: Tris/50 mM HCl buffer, pH 6.8, 10 mM CaCl2, 25° C.; read-out: affinity constant Ki, MMP-2 Gel-A
A collection of compounds and their measured pKi
// pKi here means minus log10 of the molar concentration (mol/L)

[[record]]
compound = "NC(=O)[C@H](Cc1c[nH]c2ccccc12)NC(=O)C(CCCc1ccccc1)CP(=O)(O)C(Cc1ccccc1)NC(=O)OCc1ccccc1 (mixture of isomers) [Compound 15, ZPheΨ(PO2CpH2)pPheTrpNH2]"
measured_parameter = "pKi"
observed_result = 7.70

[[record]]
compound = "NC(=O)C(Cc1c[nH]c2ccccc12)NC(=O)C(CCc1ccccc1)CP(=O)(O)C(Cc1ccccc1)NC(=O)OCc1ccccc1 (centres unmarked) [Compound 14]"
measured_parameter = "pKi"
observed_result = 6.56

[[record]]
compound = "CC(NC(=O)OCc1ccccc1)P(=O)(O)CC(COCc1ccccc1)C(=O)NC(Cc1c[nH]c2ccccc12)C(N)=O (centres unmarked) [Compound 10]"
measured_parameter = "pKi"
observed_result = 6.60

[[record]]
compound = "NC(=O)C(Cc1c[nH]c2ccccc12)NC(=O)C(CCCc1ccccc1)CP(=O)(O)C(Cc1ccccc1)NC(=O)OCc1ccccc1 (single isomer, unassigned) [Compound 15 S I]"
measured_parameter = "pKi"
observed_result = 7.35

[[record]]
compound = "NC(=O)C(Cc1c[nH]c2ccccc12)NC(=O)C(COCc1ccccc1)CP(=O)(O)C(Cc1ccccc1)NC(=O)OCc1ccccc1 (centres unmarked) [Compound 17]"
measured_parameter = "pKi"
observed_result = 7.07


Problem: Determine from records and report pKi for CC(C)CC(NC(=O)OCc1ccccc1)C(=O)NC(Cc1ccccc1)P(=O)(O)CC(CCCc1ccccc1)C(=O)NC(Cc1c[nH]c2ccccc12)C(N)=O (centres unmarked) [Compound 35]
Result: 7.40

Problem: Determine from records and report pKi for NC(=O)C(Cc1c[nH]c2ccccc12)NC(=O)C(CCCc1ccccc1)CP(=O)(O)C(Cc1ccccc1)NC(=O)COCc1ccccc1 (centres unmarked) [Compound 26]
Result: 8.10

Problem: Determine from records and report pKi for NC(=O)C(Cc1c[nH]c2ccccc12)NC(=O)C(CCCc1ccccc1)CP(=O)(O)C(Cc1ccccc1)NC(=O)CNc1cccc(Cl)c1 (centres unmarked) [Compound 28]
Result: 8.05

Problem: Determine from records and report pKi for NC(=O)C(Cc1c[nH]c2ccccc12)NC(=O)C(CCCc1ccccc1)CP(=O)(O)C(Cc1ccccc1)NC(=O)c1cc2ccccc2[nH]1 (centres unmarked) [Compound 30]
Result: 8.00

====

Target or system: MMP-1 (HFC) (Homo sapiens)
Construct: made in house; host or cells: E. coli
Sequence (P03956 100-469): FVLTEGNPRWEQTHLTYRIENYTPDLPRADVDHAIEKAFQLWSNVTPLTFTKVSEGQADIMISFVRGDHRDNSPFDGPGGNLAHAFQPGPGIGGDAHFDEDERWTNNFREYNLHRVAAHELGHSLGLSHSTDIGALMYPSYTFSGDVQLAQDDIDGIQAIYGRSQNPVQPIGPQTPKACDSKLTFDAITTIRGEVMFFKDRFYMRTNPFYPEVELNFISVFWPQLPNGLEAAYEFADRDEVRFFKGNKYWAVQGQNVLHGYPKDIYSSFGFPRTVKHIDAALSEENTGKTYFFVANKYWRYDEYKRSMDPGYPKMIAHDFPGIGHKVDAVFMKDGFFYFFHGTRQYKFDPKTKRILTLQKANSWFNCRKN
Assay notes: Ki determination with fluorogenic synthetic substrates, recombinant MMP-1
Format: biochemical
Measurement conditions: @ 1 μM inhibitor; read-out: percentage of inhibition, MMP-1
Could you please classify the records by inhibition at 1 µM using these ranges: band A (below 30%), band B (30% to below 60%), band C (60% or more)

[[record]]
molecule = "NC(=O)C(Cc1c[nH]c2ccccc12)NC(=O)C(CCCc1ccccc1)CP(=O)(O)C(Cc1ccccc1)NC(=O)CNc1ccccc1 (stereo not shown) [Compound 27]"
group_label = "band B"


Next item in the queue.
Problem: Category lookup for the molecule NC(=O)C(Cc1c[nH]c2ccccc12)NC(=O)C(CCCc1ccccc1)CP(=O)(O)C(Cc1ccccc1)NC(=O)c1cc2cc(Cl)cc(Cl)c2oc1=O (stereo not shown) [Compound 33]
Result: band B
